Assay: Activation of NF-kappaB (unknown origin) relative to control
Settings: Homo sapiens
Assign Emax to each entry below.
Field format: number, assumed %, no unit text.

Entry "Cc1ccccc1N/C=C\C(=O)c1ccccn1" needs its Emax filled in; supply it.
17

Supply measured Emax of "O=C(c1ccc2c(c1)OCO2)c1ccn(-c2ccc(F)cc2)c1" in your reply.
13.2

Give me measured Emax, please, for this compound: "Cc1ccccc1-n1ccc(C(=O)c2ccc3c(c2)OCO3)c1"
10

Specify reported Emax for the compound shown: "O=C(/C=C\Nc1ncccc1C(F)(F)F)c1ccc2c(c1)OCO2"
23

Return reported Emax. Input compound: "COc1cccnc1N/C=C\C(=O)c1ccccn1"
24

Indicate the recorded Emax value for this compound: "O=C(/C=C\Nc1ccccc1Cl)c1ccc2c(c1)OCO2"
24

// fetch Emax given entry "Cc1cccc2c(C(=O)c3ccc4c(c3)OCO4)c[nH]c12"
23

Indicate the recorded Emax value for this compound: "COc1ccccc1N/C=C\C(=O)c1ccc2c(c1)OCO2"
14

Identify measured Emax corresponding to "Cc1cccnc1N/C=C\C(=O)c1ccc2c(c1)OCO2"
22

Output Emax of "O=C(c1ccc2c(c1)OCO2)c1ccn(-c2ccccc2F)c1"
12.5

Fill in reported Emax for this entry: "O=C(c1ccc2c(c1)OCO2)c1c[nH]c2cc(Br)ccc12"
11.2

// fetch Emax given entry "O=C(c1ccc(F)c(F)c1)c1ccn(-c2ccccc2F)c1"
13

Identify measured Emax associated with "O=C(c1ccc2c(c1)OCO2)c1c[nH]c2c(F)cccc12"
18

Dear colleague, please send me the reported Emax for "O=C(/C=C\Nc1ccccc1C(F)(F)F)c1ccc2c(c1)OCO2" when you can.
8

// Input: "COc1cccnc1N/C=C\C(=O)c1ccc2c(c1)OCO2" . Output its Emax only.
12

For the compound "Cc1ccccc1N/C=C\C(=O)c1ccc2c(c1)OCO2" , report Emax.
24

In one line, give reported Emax of the entry "O=C(/C=C\Nc1ccccc1Br)c1ccc2c(c1)OCO2" .
26

Kindly indicate its recorded Emax. Item: "O=C(/C=C\Nc1ccccc1)c1ccc2c(c1)OCO2"
11

Return value of Emax for input "O=C(/C=C\Nc1ncccc1F)c1ccccn1" , no commentary.
14

Hello, please tell me recorded Emax for this one: "O=C(c1ccc2c(c1)OCO2)c1c[nH]c2cc(Cl)ccc12"
13.2

Read off the recorded Emax for "O=C(c1ccc2c(c1)OCO2)c1c[nH]c2c(Br)cccc12"
18

# return recorded Emax for input "Cc1ccc(C(=O)c2ccn(-c3ccccc3F)c2)cc1C"
19.9

Return value of Emax for input "O=C(/C=C\Nc1ccccc1F)c1ccc2c(c1)OCO2" , no commentary.
22

Using known records, supply Emax for "O=C(/C=C\Nc1ccccc1F)c1ccccn1"
20

----------
Assay: Activation of NF-kappaB (unknown origin)
Parameters: species or system Homo sapiens
Settings: read-out: EC50
READOUT KIND: EC50 (µM)
The response must be a number in µM with no trailing unit.

For the molecule "Fc1ccccc1-n1ccc(CNc2ccc3c(c2)OCO3)c1" , report EC50.
15

Query EC50 for "O=C(Nc1ccc2c(c1)OCO2)c1ccn(-c2ccccc2F)c1"
11.3

Fill in EC50 for record "Cc1ccccc1N/C=C\C(=O)c1ccc2c(c1)OCO2"
0.8

Indicate its recorded EC50; the molecule in question is "O=C(/C=C\Nc1ccccc1Br)c1ccc2c(c1)OCO2"
0.5

Give the reported EC50 for this molecule. "O=C(/C=C\Nc1ccccc1F)c1ccc2c(c1)OCO2"
0.32

Determine its reported EC50: "O=C(/C=C\Nc1ccccc1F)c1ccccn1"
1

For "O=C(/C=C\Nc1ncccc1F)c1ccccn1" , write its EC50.
0.9
